B1: CPEB3 Ribozyme (parent)
chain: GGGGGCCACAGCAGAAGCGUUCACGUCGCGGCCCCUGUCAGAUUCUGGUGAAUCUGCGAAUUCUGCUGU

Variants of: B1
Assay: self-cleavage, relative activity (ratio to wild type); higher = more cleavage; co-transcriptional
Classification field: rule met = self-cleavage at or over 0.4; rule not met = self-cleavage under 0.4.

G14U U36C : rule met

Check this variant for self-cleavage at or above 0.4: G25A U62G
rule not met

Check this variant for self-cleavage at or above 0.4: A10C C33U
rule met

Check this variant for self-cleavage at or above 0.4: C24G C39G
rule not met

Check this variant for self-cleavage at or above 0.4: G1C A51G
rule not met

Check this variant for self-cleavage at or above 0.4: A16G G68A
rule met

Check this variant for self-cleavage at or above 0.4: A16G C29G
rule not met
